Target: NMDA receptor
Assay: Displacement of tritiated CPP ([3H] CPP binding) in rat frontal cortex homogenates
property-measured: log10 of IC50 (log10 of the value in µM)
Heads up: the numbers are on a log10 scale; they represent IC50 in µM.

Past entries and their recorded results:
Reported log10 of IC50 for NC(Cc1nc2cc(Cl)c(Cl)cc2nc1CP(=O)(O)O)C(=O)O (centres unmarked) [Example 7] : what is it?
-2.40

Reported log10 of IC50 for NC(Cc1nc2cc(F)c(F)cc2nc1CP(=O)(O)O)C(=O)O (centres unmarked) [Example 10] : what is it?
-0.78

Reported log10 of IC50 for Cc1cc2nc(CC(N)C(=O)O)c(CP(=O)(O)O)nc2cc1C (centres unmarked) [Example 4] : what is it?
-1.66

Reported log10 of IC50 for NC(Cc1nc2ccccc2nc1CP(=O)(O)O)C(=O)O (racemic) [Example 1] : what is it?
-0.96

Now consider a different compound.
Reported log10 of IC50 for N[C@@H](CCC(=O)O)C(=O)O [L-glutamic acid, reference compound] : what is it?
-1.19
